# EXPERIMENT_SUMMARY: Compound was tested for inhibitory activity against DNA pol III of Bacillus subtilis
Please provide measured pKi for the entries that follow.
Notebook: values listed as pKi are -log10 of the concentration (mol/L).

// query pKi value for entry Cn1c(=O)cc(Nc2ccc3c(c2)CCC3)[nH]c1=O
5.87

// query pKi value for entry Oc1cc(Nc2ccc3c(c2)CCC3)nc(O)n1
5.92

// query pKi value for entry CCc1cc(Nc2cc(O)nc(O)n2)ccc1C
6.00

// query pKi value for entry CCc1cc(Nc2cc(=O)n(CCCOC)c(=O)[nH]2)ccc1C
6.00

// query pKi value for entry CCn1c(=O)cc(Nc2ccc3c(c2)CCC3)[nH]c1=O
6.51

// query pKi value for entry CCc1cc(Nc2cc(=O)n(CCOC)c(=O)[nH]2)ccc1C
6.24

// query pKi value for entry C=CCn1c(=O)cc(Nc2ccc(C)c(CC)c2)[nH]c1=O
6.68

// query pKi value for entry CCc1cc(Nc2cc(=O)n(CCO)c(=O)[nH]2)ccc1C
6.23

// query pKi value for entry CCCCCCn1c(=O)cc(Nc2ccc3c(c2)CCC3)[nH]c1=O
6.62

// query pKi value for entry CCc1cc(Nc2cc(=O)n(CCCO)c(=O)[nH]2)ccc1C
6.14

// query pKi value for entry C=CCn1c(=O)cc(Nc2ccc3c(c2)CCC3)[nH]c1=O
6.42

Data credit: ChEMBL document CHEMBL1132233
